Where do the numbers come from? From patent US6632829B2.

Biological target: human ETA receptors (Homo sapiens, UniProt P25101)
Construct: endogenous in cells; host or cells: TE 671 cells (ATCC HTB 139), membrane preparation
Sequence (P25101 21-427): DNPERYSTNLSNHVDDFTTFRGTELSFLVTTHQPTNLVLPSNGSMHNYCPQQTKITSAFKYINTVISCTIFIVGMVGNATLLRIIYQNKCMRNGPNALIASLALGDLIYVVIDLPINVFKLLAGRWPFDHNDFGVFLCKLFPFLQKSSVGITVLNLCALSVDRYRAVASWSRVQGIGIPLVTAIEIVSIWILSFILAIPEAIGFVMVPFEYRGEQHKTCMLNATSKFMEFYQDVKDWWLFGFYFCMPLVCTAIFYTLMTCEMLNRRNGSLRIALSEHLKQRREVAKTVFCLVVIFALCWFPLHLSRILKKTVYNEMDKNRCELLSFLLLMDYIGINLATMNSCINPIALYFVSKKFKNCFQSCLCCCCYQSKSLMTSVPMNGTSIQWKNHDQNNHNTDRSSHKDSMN
Assay: Endothelin binding inhibition, Binding Test #1: competition with 125I-ET-1 for ETA receptors on TE 671 cell membranes
Settings: incubation at 24° C. (values marked †)
measured_quantity: IC50 (µM)

Reference set, count: 4
compound	value_unit	IC50
Cc1noc(NS(=O)(=O)c2ccsc2C(=O)Nc2c(C)c(C)c(C)c(C)c2C)c1Cl	µM	0.0299
Cc1noc(NS(=O)(=O)c2ccsc2C(=O)Oc2cccc(N(C)C)c2)c1Cl	µM	1.4
COc1cc(C#N)c(NC(=O)c2sccc2S(=O)(=O)Nc2onc(C)c2Cl)cc1OC	µM	0.0039
Cc1noc(NS(=O)(=O)c2ccsc2C(=O)N2CCN(Cc3ccc4c(c3)OCO4)CC2)c1Cl	µM	20

P: Cc1ccc(NC(=O)c2sccc2S(=O)(=O)Nc2onc(C)c2Cl)nc1
Q: Cc1cc(C)c(NC(=O)c2sccc2S(=O)(=O)Nc2onc(C)c2Cl)c(C)c1CC#N
Problem: Decide: P or Q , by lowest recorded IC50. Please indicate the selected item by its label.
Solution: Q
(Q: 0.00118 µM, P: 0.023 µM)

a: Cc1nnc(NC(=O)c2sccc2S(=O)(=O)Nc2onc(C)c2Cl)s1
b: Cc1cc(NC(=O)c2sccc2S(=O)(=O)Nc2onc(C)c2Cl)no1
c: Cc1cc(C)c(NC(=O)c2sccc2S(=O)(=O)Nc2onc(C)c2Cl)c(C)c1CC(=O)O
d: Cc1cc(C)c(NC(=O)c2sccc2S(=O)(=O)Nc2onc(C)c2Cl)c(-c2ccccc2)c1
e: Cc1noc(NS(=O)(=O)c2c(Cc3ccc4c(c3)OCO4)sc3ccccc23)c1Br
Problem: Arrange the 5 entries by IC50 so the values rise. Enter labels, ranked according to the request.
Solution: c, e, d, b, a

* * *

target: human ETA receptors (Homo sapiens, UniProt P25101); construct: endogenous in cells; host or cells: TE 671 cells (ATCC HTB 139), membrane preparation; assay: Endothelin binding inhibition, Binding Test #1: competition with 125I-ET-1 for ETA receptors on TE 671 cell membranes; settings: incubation at 24° C. (values marked †)
Structures can show the parent of a compound that is named as a salt.
measured_quantity: IC50 (µM)

compound	value_unit	IC50
Cc1ccc(CCc2ccsc2S(=O)(=O)Nc2onc(C)c2Br)cc1	µM	0.347
Cc1cc(C)c(NC(=O)c2sccc2S(=O)(=O)Nc2onc(C)c2Cl)c(C)c1CN(C)C [trifluoroacetic acid salt]	µM	0.0134
Cc1noc(NS(=O)(=O)c2sccc2CC=Cc2cc3c(cc2COC2CCCCO2)OCO3)c1Br (stereo not shown)	µM	0.0967

I: Cc1cc(C)c(NC(=O)c2sccc2S(=O)(=O)Nc2onc(C)c2Cl)c(C)c1O
II: Cc1noc(NS(=O)(=O)c2ccc(-c3cc4ccccc4s3)s2)c1Br
III: Cc1cc(C)c(S(N)(=O)=O)c(C)c1NC(=O)c1sccc1S(=O)(=O)Nc1onc(C)c1Cl
IV: Cc1noc(NS(=O)(=O)c2ccsc2C(=O)Cc2ccc3c(c2)OCO3)c1C
Problem: Arrange the 4 compounds by rising IC50, starting with the smallest. Output spec: a listing of the labels in the requested order.
Solution: III, I, IV, II
(III: 0.00092 µM, I: 0.00171 µM, IV: 0.0273 µM, II: 16 µM)

* * *

target: human ETA receptors (Homo sapiens, UniProt P25101); construct: endogenous in cells; host or cells: TE 671 cells (ATCC HTB 139), membrane preparation; experiment: Endothelin binding inhibition, Binding Test #1: competition with 125I-ET-1 for ETA receptors on TE 671 cell membranes; details: incubation at 24° C. (values marked †)
measured_quantity: IC50 (nM)

Solved entries (count: 3):
molecule	measurement
Cc1noc(NS(=O)(=O)c2ccsc2C(=O)OC2CCOCC2)c1Cl	1370
Cc1noc(NS(=O)(=O)c2ccsc2C(=O)C(O)c2ccc3c(c2)OCO3)c1Cl (stereo not shown)	2500
Cc1cccc(-c2ccsc2S(=O)(=O)Nc2onc(C)c2Br)c1	832

a: Cc1noc(NS(=O)(=O)c2ccsc2C(=O)Nc2cc3c(cc2C(=O)O)OCO3)c1Cl
b: Cc1noc(NS(=O)(=O)c2sccc2CC=Cc2cc3c(cc2CO)OCO3)c1Br
c: Cc1noc(NS(=O)(=O)c2ccsc2COc2ccc3c(c2Cl)OCO3)c1Br
Problem: I would appreciate it if you could sort these 3 molecules by IC50, starting from the smallest number. List the labels in the requested order.
Solution: b, a, c

1: Cc1ccc(OCc2ccsc2S(=O)(=O)Nc2onc(C)c2Br)c(C)c1
2: CCc1ccc(Cc2sc3ccccc3c2S(=O)(=O)Nc2onc(C)c2Br)cc1
Problem: Which of the two gives a bigger number for IC50: 1 or 2 ? Give the label of your selection.
Solution: 1
(1: 346 nM, 2: 48 nM)

* * *

target: human ETA receptors (Homo sapiens); construct: endogenous in cells; host or cells: TE 671 cells (ATCC HTB 139), membrane preparation; assay: Endothelin binding inhibition, Binding Test #1: competition with 125I-ET-1 for ETA receptors on TE 671 cell membranes; conditions: incubation at 24° C. (values marked †)
measured_quantity: IC50 (µM)

substance_smiles	IC50 [µM]
Cc1ccc(C=CCc2ccsc2S(=O)(=O)Nc2onc(C)c2Br)c(C)c1	0.18
Cc1noc(NS(=O)(=O)c2ccsc2C(=O)Oc2ccc3c(c2)OCO3)c1C	3.61
Cc1noc(NS(=O)(=O)c2sccc2-c2ccc(CCC(C)C)cc2)c1Br	0.155
Cc1noc(NS(=O)(=O)c2ccsc2CC2(c3ccc4c(c3)OCO4)OCCO2)c1Cl	0.128
Cc1ccc(OC(=O)c2sccc2S(=O)(=O)Nc2onc(C)c2Cl)c(C)c1	0.648

P: Cc1noc(NS(=O)(=O)c2c(Cc3ccc4c(c3)OCO4)sc3ccccc23)c1Cl
Q: Cc1ccc(CCc2sccc2S(=O)(=O)Nc2onc(C)c2Br)c(C)c1
R: Cc1noc(NS(=O)(=O)c2sccc2-c2ccc(CC(C)C)cc2)c1Br
Problem: Arrange by IC50, high to low. Response format: the labels, sorted as the prompt asks.
Solution: R, Q, P

P: Cc1noc(NS(=O)(=O)c2ccsc2C(=O)Nc2cccc(C(=O)O)c2)c1Br
Q: COc1cc(Cc2sc3ccccc3c2S(=O)(=O)Nc2onc(C)c2Br)cc(OC)c1OC
Problem: Would you mind telling me which has the lower recorded IC50 between P and Q ? To answer, give the label that identifies your chosen option.
Solution: Q

* * *

biological target: human ETA receptors (Homo sapiens); construct: endogenous in cells; host or cells: TE 671 cells (ATCC HTB 139), membrane preparation; experiment: Endothelin binding inhibition, Binding Test #1: competition with 125I-ET-1 for ETA receptors on TE 671 cell membranes; conditions: incubation at 24° C. (values marked †)
measured_quantity: IC50 (nM)

Some compounds with recorded IC50:
compound	value_unit	IC50
Cc1cc(C)c(NC(=O)c2sccc2S(=O)(=O)Nc2onc(C)c2C)c(C)c1CC#N	nM	1.56
COc1ccc(CC(=O)c2sccc2S(=O)(=O)Nc2onc(C)c2Cl)cc1	nM	43

I: Cc1noc(NS(=O)(=O)c2ccsc2C(=O)Nc2ccc(O)nn2)c1Br
II: CC(=O)OCCc1cc2c(cc1NC(=O)c1sccc1S(=O)(=O)Nc1onc(C)c1Cl)OCO2
III: Cc1noc(NS(=O)(=O)c2ccsc2C(=O)Nc2cc3c(cc2CNS(C)(=O)=O)OCO3)c1Cl
IV: Cc1cc(C)c(OC(=O)c2sccc2S(=O)(=O)Nc2onc(C)c2Br)c(C)c1
Problem: Order the records, beginning with the lowest IC50 and ending with the highest. Answer format: list of labels, ordered as asked.
Solution: II, III, I, IV

P: Cc1noc(NS(=O)(=O)c2ccsc2CC(O)c2ccc3c(c2)OCO3)c1Cl (stereo not drawn)
Q: Cc1ccc(/C=C/c2ccsc2S(=O)(=O)Nc2onc(C)c2Br)cc1
Problem: Dear colleague, could you let me know whether P or Q has the lower recorded IC50? Thanks. Please respond with the label that marks your chosen entry.
Solution: P
(P: 53 nM, Q: 940 nM)

A: Cc1cc(C)c(OC(=O)c2sccc2S(=O)(=O)Nc2onc(C)c2C)c(C)c1
B: Cc1cc(C)c(NC(=O)c2sccc2S(=O)(=O)Nc2noc(C)c2Cl)c(C)c1CO
Problem: # compare IC50 for A vs B ; return the one with the smaller value State your choice using its label.
Solution: B
(B: 0.88 nM, A: 537 nM)
